# method_summary: H1N1 influenza NS1A inhibitors, functional cell based assay (AID 504329)
# assay_context: percent inhibition, at 12.5 µM, active compounds read high
Out of some 340,000 compounds screened, about 1,000 (0.29%) were called active. Not all results are given here. Results with a measured potency or affinity are listed apart.
parameter: inhibition (%)
Return type: number; implicit unit %.

compound	inhibition [%]
CCN(CC)CCNC(=O)/C(=C/c1cn(C)c2ccccc12)NC(=O)c1ccc(OC)c(OC)c1	-22.9
CN1CCCN(C(=O)CNC(=O)c2ccccc2F)CC1	-1.28
Cc1ccc(NC(=O)CSc2n[nH]c(-c3ccncc3)n2)cc1	-14.5

// next item, inhibition requested
In: Value lookup for inhibition; key = O=C(CCC1CCCN(C(=O)c2ccoc2)C1)NCc1ccccc1F (centres undefined)
Out: -1.5
